# Target system: MERTK (UniProt Q12866)
# Sequence (Q12866 whole entry, looked up): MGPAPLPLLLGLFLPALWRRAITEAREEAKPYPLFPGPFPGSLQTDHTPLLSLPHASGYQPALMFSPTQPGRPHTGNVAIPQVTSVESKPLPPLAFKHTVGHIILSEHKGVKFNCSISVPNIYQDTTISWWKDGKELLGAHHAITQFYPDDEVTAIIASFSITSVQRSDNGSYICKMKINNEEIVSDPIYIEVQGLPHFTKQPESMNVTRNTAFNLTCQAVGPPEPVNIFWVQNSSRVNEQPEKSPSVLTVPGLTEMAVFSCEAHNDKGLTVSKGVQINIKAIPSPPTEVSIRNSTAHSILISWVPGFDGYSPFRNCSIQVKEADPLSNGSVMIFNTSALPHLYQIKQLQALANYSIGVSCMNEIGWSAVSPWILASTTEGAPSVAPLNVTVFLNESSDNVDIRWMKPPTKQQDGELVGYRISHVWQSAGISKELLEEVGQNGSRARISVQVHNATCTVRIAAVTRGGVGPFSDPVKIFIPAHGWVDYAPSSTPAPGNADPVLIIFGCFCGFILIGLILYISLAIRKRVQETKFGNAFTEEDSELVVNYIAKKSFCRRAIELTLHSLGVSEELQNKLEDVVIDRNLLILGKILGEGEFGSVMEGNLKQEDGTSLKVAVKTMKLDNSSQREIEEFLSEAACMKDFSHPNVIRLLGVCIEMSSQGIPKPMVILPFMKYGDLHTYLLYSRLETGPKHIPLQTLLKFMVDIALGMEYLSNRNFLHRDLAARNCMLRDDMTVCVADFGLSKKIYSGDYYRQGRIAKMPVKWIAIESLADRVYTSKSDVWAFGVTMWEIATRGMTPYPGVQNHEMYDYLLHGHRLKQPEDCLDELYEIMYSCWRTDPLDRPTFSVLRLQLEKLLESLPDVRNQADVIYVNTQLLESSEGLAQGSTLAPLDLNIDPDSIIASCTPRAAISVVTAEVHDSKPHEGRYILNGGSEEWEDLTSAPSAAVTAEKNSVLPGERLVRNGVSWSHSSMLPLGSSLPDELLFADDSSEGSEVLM
# Protocol details: phosphorylation enrichment, bacterial display (enrichment ratio); higher = better substrate or ligand; peptides without Tyr show the background
Classification field: True = phosphorylation enrichment at or over 0.7; False = phosphorylation enrichment under 0.7.

• IGKAGYTDKVV [ENO1_Y236] = False

Q: Check if phosphorylation enrichment >= 0.7 (inclusive). Item: REEIKYMLWLS [OTC_Y55_G50R]
A: True

Q: Check if phosphorylation enrichment >= 0.7 (inclusive). Item: EEDPEYKKKFR [FAM161A_Y278]
A: False

Q: Check if phosphorylation enrichment >= 0.7 (inclusive). Item: GEETDYTPVWC [UROD_Y30]
A: False

Q: Check if phosphorylation enrichment >= 0.7 (inclusive). Item: ILGTYYETGSI [PAX2_Y73_R71T]
A: True

Q: Check if phosphorylation enrichment >= 0.7 (inclusive). Item: YRTGHYLCNAC [GATA1_Y223_D218Y]
A: False

Q: Check if phosphorylation enrichment >= 0.7 (inclusive). Item: AGGTRYRFVSQ [UCN3_Y95_R91G_YF]
A: False

Q: Check if phosphorylation enrichment >= 0.7 (inclusive). Item: FRNSLYAPDFS [FAM92A_Y226_YF]
A: True

Q: Check if phosphorylation enrichment >= 0.7 (inclusive). Item: CLLHCYFSQIR [MCM3AP_Y873]
A: False

Q: Check if phosphorylation enrichment >= 0.7 (inclusive). Item: NQNIGYKLGHR [KCNN3_Y268]
A: False

Q: Check if phosphorylation enrichment >= 0.7 (inclusive). Item: SSPVLYLSPET [TJP1_Y931_P930L]
A: True

Q: Check if phosphorylation enrichment >= 0.7 (inclusive). Item: VTSLKYSTPPY [BRIP1_Y916_S919P]
A: False

Q: Check if phosphorylation enrichment >= 0.7 (inclusive). Item: SNMPTYSGHFT [GRIN2A_Y1224]
A: True

----------
# Target system: EPHB1 (UniProt P54762)
# Sequence (P54762 whole entry, looked up): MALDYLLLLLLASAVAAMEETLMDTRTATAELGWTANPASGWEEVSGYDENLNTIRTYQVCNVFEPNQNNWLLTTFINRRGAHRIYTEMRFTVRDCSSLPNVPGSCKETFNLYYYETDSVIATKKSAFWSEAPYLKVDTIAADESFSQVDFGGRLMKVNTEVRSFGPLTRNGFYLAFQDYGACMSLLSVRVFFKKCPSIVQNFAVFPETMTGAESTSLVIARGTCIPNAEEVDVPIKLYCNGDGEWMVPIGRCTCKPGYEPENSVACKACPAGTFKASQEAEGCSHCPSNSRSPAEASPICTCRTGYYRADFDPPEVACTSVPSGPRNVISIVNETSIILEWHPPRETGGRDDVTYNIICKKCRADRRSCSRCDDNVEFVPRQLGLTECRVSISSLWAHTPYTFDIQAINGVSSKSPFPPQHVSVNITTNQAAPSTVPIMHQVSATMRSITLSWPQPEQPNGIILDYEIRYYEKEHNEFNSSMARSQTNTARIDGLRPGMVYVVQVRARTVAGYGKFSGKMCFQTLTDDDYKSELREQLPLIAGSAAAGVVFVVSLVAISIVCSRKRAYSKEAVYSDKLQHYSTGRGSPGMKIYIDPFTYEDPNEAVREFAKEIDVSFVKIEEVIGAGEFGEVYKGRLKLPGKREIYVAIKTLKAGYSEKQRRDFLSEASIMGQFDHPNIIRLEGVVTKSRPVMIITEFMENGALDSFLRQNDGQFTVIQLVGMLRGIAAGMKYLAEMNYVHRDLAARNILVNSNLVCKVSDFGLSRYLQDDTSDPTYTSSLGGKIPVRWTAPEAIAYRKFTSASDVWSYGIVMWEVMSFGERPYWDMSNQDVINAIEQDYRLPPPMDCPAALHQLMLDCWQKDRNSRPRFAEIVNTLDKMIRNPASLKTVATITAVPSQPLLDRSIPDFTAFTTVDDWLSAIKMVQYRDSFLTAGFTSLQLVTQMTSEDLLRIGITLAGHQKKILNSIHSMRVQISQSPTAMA
# Protocol details: phosphorylation enrichment, bacterial display (enrichment ratio); higher = better substrate or ligand; peptides without Tyr show the background
Classification field: 1 = phosphorylation enrichment at or over 0.6; 0 = phosphorylation enrichment under 0.6.

• RVLQLYGCSPS [ASTL_Y279_K277Q] = 1
• FLAVEYHKPHI [IDS_Y225_G224E] = 0
• SILAVYSKDNY [PANK2_Y400] = 0
• LGKLTYPVGFW [NTHL1_Y177_I176T] = 1
• IRKDLYANNVL [ACTA2_Y296] = 0

Q: Check if phosphorylation enrichment >= 0.6 (inclusive). Item: KKLEVYQSIAD [MYBPC3_Y548]
A: 0

----------
Quick reference for phosphorylation enrichment among some sequences
# Target system: Hck (UniProt P08631)
# Sequence (P08631 whole entry, looked up): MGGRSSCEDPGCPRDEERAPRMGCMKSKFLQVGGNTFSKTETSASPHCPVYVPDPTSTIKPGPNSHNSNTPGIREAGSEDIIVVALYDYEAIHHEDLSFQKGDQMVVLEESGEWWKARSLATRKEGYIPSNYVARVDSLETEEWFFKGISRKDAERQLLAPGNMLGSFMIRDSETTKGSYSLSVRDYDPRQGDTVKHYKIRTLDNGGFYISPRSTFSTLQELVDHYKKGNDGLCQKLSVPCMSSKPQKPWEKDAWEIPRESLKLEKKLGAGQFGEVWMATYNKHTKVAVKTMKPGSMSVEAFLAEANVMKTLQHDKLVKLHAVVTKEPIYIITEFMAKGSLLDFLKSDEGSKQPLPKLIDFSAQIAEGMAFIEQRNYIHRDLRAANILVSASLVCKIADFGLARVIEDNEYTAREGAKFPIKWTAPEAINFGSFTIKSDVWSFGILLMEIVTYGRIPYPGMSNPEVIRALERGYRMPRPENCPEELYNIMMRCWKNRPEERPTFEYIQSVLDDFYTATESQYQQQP
# Protocol details: phosphorylation enrichment, bacterial display (enrichment ratio); higher = better substrate or ligand; peptides without Tyr show the background
Lab note: record the figure alone, no unit after it.

These solved cases illustrate the format of a correct answer.
* VLNKGYRMVVN [HINT1_Y94_G89V] | 0.368
* CSHMFYGKQCC [ADAMTS16_Y1211_K1209M] | 0.519
* GYEEAYSVFKK [PAFAH1B1_Y28] | 4.07
* TLMNAYSSRCH [KIF11_Y231_S235C] | 0.496
* KDKLPYPFDDP [GPX2_Y125_YF] | 0.498
* RETLTYAQAQR [BRD1_Y33] | 0.746
* YQSKHYACIRQ [TIMP3_Y182] | 0.55
* LITTLYISFLG [KCNQ1_Y267_G269S] | 1.15

PPEFSYGLQTQ [SRA1_Y35_Q32E] tested on Hck (UniProt P08631) gave phosphorylation enrichment: 0.416

HGDSAYHSQRH [ERBB3_Y1132_R1127H] tested on Hck (UniProt P08631) gave phosphorylation enrichment: 0.648

----------
# Target system: c-Src SH2;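 further: peptide library displayed on the E. coli surface as eCPX fusions, selected cells deep-sequenced, score is each peptide's frequency after selection divided by its frequency in the input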
# Protocol details: SH2 binding enrichment of the phosphorylated peptide, bacterial display (enrichment ratio); higher = better substrate or ligand; peptides without Tyr show the background
Classification field: YES = SH2 binding enrichment at or over 0.6; NO = SH2 binding enrichment under 0.6.

Worked examples, 3 sequences total:
* AEEPIYIIVPA [BMXtide_2014] | YES
* FRNSLYAPDFS [FAM92A_Y226_YF] | NO
* YRTGHYLCNAC [GATA1_Y223_D218Y] | YES

Q: Check if SH2 binding enrichment >= 0.6 (inclusive). Item: PKEQRYSFLQN [GH1_Y68_K67R]
A: YES

Q: Check if SH2 binding enrichment >= 0.6 (inclusive). Item: SGGCSYGSGGG [KRT1_Y539_G537C]
A: NO

Q: Check if SH2 binding enrichment >= 0.6 (inclusive). Item: EKLQKYFRQNP [EHHADH_Y682_YF]
A: NO

Q: Check if SH2 binding enrichment >= 0.6 (inclusive). Item: DKATEYIQFVR [MAX_Y70_M74V_YF]
A: NO

Q: Check if SH2 binding enrichment >= 0.6 (inclusive). Item: SAVVPYEPPEV [TP53_Y220_V216A]
A: YES

----------
# System: c-Src
# Protocol details: phosphorylation enrichment, bacterial display (enrichment ratio); higher = better substrate or ligand; peptides without Tyr show the background
Classification field: true (1) = phosphorylation enrichment at or over 0.7; false (0) = phosphorylation enrichment under 0.7.

Worked examples, 3 sequences total:
- EVKAQYEDIAQ [KRT1_Y358]: false (0)
- CTTIHYHFMCN [TP53_Y234_N235H_YF]: false (0)
- HEEDNYIEMIP [NWD2_Y566_L569M]: true (1)

Q: Check if phosphorylation enrichment >= 0.7 (inclusive). Item: ALAAPYVLYPS [CEFIP_Y1332_G1337S]
A: true (1)

Q: Check if phosphorylation enrichment >= 0.7 (inclusive). Item: KSSDVYVSYDC [SORL1_Y136_Y141C]
A: true (1)

Q: Check if phosphorylation enrichment >= 0.7 (inclusive). Item: LLREWYLPDPY [SIX3_Y225_Q227P]
A: false (0)

Q: Check if phosphorylation enrichment >= 0.7 (inclusive). Item: IFHENYNAGTY [CFI_Y421]
A: false (0)

Q: Check if phosphorylation enrichment >= 0.7 (inclusive). Item: PDNEPYIFKVF [PIK3AP1_Y553]
A: true (1)

Q: Check if phosphorylation enrichment >= 0.7 (inclusive). Item: REEIKYMLWLS [OTC_Y55_G50R]
A: false (0)

Q: Check if phosphorylation enrichment >= 0.7 (inclusive). Item: RSAGKDDVFLI [MECP2_Y120_Y120D_YF]
A: false (0)

Q: Check if phosphorylation enrichment >= 0.7 (inclusive). Item: LFDPDYMKVIL [CYP4A22_Y104_YF]
A: false (0)

Q: Check if phosphorylation enrichment >= 0.7 (inclusive). Item: SSDKVYAHQMV [MLH1_Y379]
A: false (0)

Q: Check if phosphorylation enrichment >= 0.7 (inclusive). Item: ATVLNYLPKCI [A2M_Y817]
A: false (0)

----------
# Target system: FGFR3 (UniProt P22607)
# Sequence (P22607 whole entry, looked up): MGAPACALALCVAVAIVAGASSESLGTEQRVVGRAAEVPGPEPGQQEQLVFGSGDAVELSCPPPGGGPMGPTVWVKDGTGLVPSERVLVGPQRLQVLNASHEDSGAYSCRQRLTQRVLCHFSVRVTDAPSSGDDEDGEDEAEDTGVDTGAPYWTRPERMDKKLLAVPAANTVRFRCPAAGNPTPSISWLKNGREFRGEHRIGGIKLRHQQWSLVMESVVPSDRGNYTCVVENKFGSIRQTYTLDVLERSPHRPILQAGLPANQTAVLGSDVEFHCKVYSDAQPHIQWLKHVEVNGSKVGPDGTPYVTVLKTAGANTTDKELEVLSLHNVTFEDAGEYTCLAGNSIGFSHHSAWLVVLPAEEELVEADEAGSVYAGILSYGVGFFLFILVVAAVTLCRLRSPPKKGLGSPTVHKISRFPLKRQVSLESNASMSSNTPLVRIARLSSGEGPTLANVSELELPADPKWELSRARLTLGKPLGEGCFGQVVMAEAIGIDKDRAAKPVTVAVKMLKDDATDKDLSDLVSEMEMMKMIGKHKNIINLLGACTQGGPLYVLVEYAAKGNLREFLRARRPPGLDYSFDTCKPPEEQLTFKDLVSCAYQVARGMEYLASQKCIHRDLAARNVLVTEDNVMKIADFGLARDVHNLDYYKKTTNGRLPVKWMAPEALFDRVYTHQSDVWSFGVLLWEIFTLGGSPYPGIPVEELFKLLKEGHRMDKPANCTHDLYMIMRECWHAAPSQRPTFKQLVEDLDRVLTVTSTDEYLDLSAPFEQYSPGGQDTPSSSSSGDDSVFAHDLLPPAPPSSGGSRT
# Protocol details: phosphorylation enrichment, bacterial display (enrichment ratio); higher = better substrate or ligand; peptides without Tyr show the background
Quick reference for phosphorylation enrichment among some sequences
Lab note: record the figure alone, no unit after it.

For this sequence ( DAKAIYDFTDT [PDK1_Y136] ), measured phosphorylation enrichment is 0.665

For this sequence ( CQASLYPSNHD [LRIG1_Y996_G993A] ), measured phosphorylation enrichment is 0.792

For this sequence ( KNDSNYVVKGN [KIT_Y823] ), measured phosphorylation enrichment is 0.447

For this sequence ( GSSEDYLHMVH [NIPBL_Y247] ), measured phosphorylation enrichment is 1

For this sequence ( IYRASYVPFAA [RBM47_Y541_G538R] ), measured phosphorylation enrichment is 0.645

For this sequence ( HLWRIYYDITD [MMP27_Y307] ), measured phosphorylation enrichment is 3.87

For this sequence ( GHNDVYILEHV [GRIN2A_Y1423_S1425L] ), measured phosphorylation enrichment is 0.594

For this sequence ( VRSVDYVLFRS [FAM189B_Y361] ), measured phosphorylation enrichment is 1.4

For this sequence ( NVVHEYSSELE [FGB_Y172_N170H] ), measured phosphorylation enrichment is 0.705

For this sequence ( NQNIGYKLGHR [KCNN3_Y268] ), measured phosphorylation enrichment is 0.358

For this sequence ( DGQVNYEELVQ [CALM1_Y139_F142L] ), measured phosphorylation enrichment is 0.735

----------
# Target system: Fyn (UniProt P06241)
# Sequence (P06241 whole entry, looked up): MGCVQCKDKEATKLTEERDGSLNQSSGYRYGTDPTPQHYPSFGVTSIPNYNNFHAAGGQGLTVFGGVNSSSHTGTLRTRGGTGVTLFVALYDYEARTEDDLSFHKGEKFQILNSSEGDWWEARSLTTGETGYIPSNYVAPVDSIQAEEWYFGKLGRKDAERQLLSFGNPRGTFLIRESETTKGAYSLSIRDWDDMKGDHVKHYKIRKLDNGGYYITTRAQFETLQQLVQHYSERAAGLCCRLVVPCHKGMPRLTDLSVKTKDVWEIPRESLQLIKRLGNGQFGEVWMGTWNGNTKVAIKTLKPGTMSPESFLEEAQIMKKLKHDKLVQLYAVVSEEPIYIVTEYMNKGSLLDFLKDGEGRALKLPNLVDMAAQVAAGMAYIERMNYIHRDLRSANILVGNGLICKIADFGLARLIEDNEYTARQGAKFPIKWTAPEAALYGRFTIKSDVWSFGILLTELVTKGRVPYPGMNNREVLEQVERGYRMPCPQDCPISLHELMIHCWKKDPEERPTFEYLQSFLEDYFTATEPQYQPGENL
# Protocol details: phosphorylation enrichment, bacterial display (enrichment ratio); higher = better substrate or ligand; peptides without Tyr show the background
Quick reference for phosphorylation enrichment among some sequences
Lab note: record the figure alone, no unit after it.

* RESSGYLRLAF [MEP1A_Y481] | 0.732
* FLLTVYSIFSK [SGCE_Y38] | 2.59
* YVFSFYHAFSG [ACTN4_Y265_S262F] | 0.692

EKLQKYFRQNP [EHHADH_Y682_YF] tested on Fyn (UniProt P06241) gave phosphorylation enrichment: 0.431

LNERHYGGLTD [PGAM2_Y92_G97D] tested on Fyn (UniProt P06241) gave phosphorylation enrichment: 0.975

AKGMKYLASKK [MET_Y1194] tested on Fyn (UniProt P06241) gave phosphorylation enrichment: 0.354

YEDALYTVLHR [UNC13D_Y61] tested on Fyn (UniProt P06241) gave phosphorylation enrichment: 8.38

GISDEYHVIRH [GCDH_Y398] tested on Fyn (UniProt P06241) gave phosphorylation enrichment: 0.64

SGGCSYGSGGG [KRT1_Y539_G537C] tested on Fyn (UniProt P06241) gave phosphorylation enrichment: 0.381
